Hello, the source for this data is paper PMC9352680, in case you need it.

# tested system: T1, PUF4 RNA-binding domain (Saccharomyces cerevisiae, UniProt P25339 537-888)
# T1 sequence: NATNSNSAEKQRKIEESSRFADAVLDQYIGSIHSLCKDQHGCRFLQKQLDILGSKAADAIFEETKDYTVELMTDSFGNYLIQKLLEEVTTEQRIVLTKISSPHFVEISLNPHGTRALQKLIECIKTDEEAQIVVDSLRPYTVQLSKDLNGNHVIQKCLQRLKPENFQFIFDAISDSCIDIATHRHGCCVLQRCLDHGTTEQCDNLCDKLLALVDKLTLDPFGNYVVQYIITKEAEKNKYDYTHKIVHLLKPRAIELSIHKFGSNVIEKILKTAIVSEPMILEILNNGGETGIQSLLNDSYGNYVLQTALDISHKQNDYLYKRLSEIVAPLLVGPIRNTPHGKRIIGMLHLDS
# test description: Mg; RNA-MaP; 20 mM Na-HEPES pH 7.4, 30 mM KOAc, 0.75 mM MgCl2, 0.1% Tween-20, 5% glycerol, 0.1 mg/mL BSA, 2 mM DTT; 25 C; 0.0125-409.6 nM protein
# assay setup: tags: N-His6-TEV cleaved; C-SNAP kept, Cy3B-labelled; label: tethered on chip by stalled RNA polymerase
readout type: Kd (nM)
Respond with the bare value in nM.

[in] What value of Kd has been recorded for this entry: Id_ii_S2_P3E.3_K3.2_C3.2_[T-1G]_H3.2_A3.1_F3.1_T3.2 (ssRNA) RNA: UUUGAUUAAUAUGAUAUCGUUCUUUCUCGUAUAUAUAUAUUCUUUCUCGAUAUCAUAUUAAUCUUU
[out] 160

[in] I am curious: what Kd value has been reported for Id_ii_S2_P5E.3_K5.2_C5.2_[T-1C]_H5.2_A5.1_F5.1_T5.2_[T11A]_[A12C] (ssRNA) RNA: UUUGAUUAAUAUGAUAUCGUUCUUUCUCCUAUAUUAUUAACUUCUUUCUCGAUAUCAUAUUAAUCUUU ?
[out] 108

[in] Please look up its Kd: Id_iii_S2_P3E.7_K3.3_C3.3_[T-3G]_H3.3_A3.1_F3.1_T3.2 (ssRNA) RNA: UUUGAUUAAUAUGAUAUCGUUCUUUCUGCUACACUAUAUAUUCUUUCUCGAUAUCAUAUUAAUCUUU
[out] 156

[in] For the binder shown here, UCUCUUUAUAUAUAUAGCUCUCUU (ssRNA) [Id_ii_S1_P3E.3_K3.2_C3.2_[C-2T]_[T-1A]_H3.2_A3.1_F3.1_T3.2_[T9G]_[A10C]] , give the reported Kd.
[out] 148
